Biological target: T1, human-CD137 (ELISA antigen of the affinity maturation screen) (human, UniProt Q07011 24-186, limits assumed)
T1 construct: also called human-CD137 ECD
Experiment: ELISA of Fab in supernatants after phage panning
measured.metric: binding result

[[record]]
binder = "Clone 35 (Fab in supernatant) (Fab, V domains shown, Screened as Fab in supernatant) VH: QVQLVQSGAEVKKPGASVKVSCKASGFNINDTYIHWVRQAPGQGLEWMGRIDPANGYTEYAQKFQGRVTMTRDTSTSTVYMELSSLRSEDTAVYYCTTGNLHYALMDYWGQGTSVTVSS VL: DIQMTQSPSSVSASVGDRVTITCKASQAIATYLSWYQQKPGKAPKLLIYRANRMVDGVPSRFSGSGSGTDFTLTISSLQPEDFATYYCLQFQDFPYTFGGGTKLEIKR"
measured_metric = "binding result"
result = "binds"

[[record]]
binder = "Clone 33 (Fab in supernatant) (Fab, V domains shown, Screened as Fab in supernatant) VH: QVQLVQSGAEVKKPGASVKVSCKASGFNIKDTYIQWVRQAPGQGLEWMGKIDPANGNTMYAQKFQGRVTMTRDTSTSTVYMELSSLRSEDTAVYYCTTGNLHYALMDYWGQGTSVTVSS VL: DIQMTQSPSSVSASVGDRVTITCKASQTINTYLSWYQQKPGKAPKLLIYRANRMPDGVPSRFSGSGSGTDFTLTISSLQPEDFATYYCLQYDDFPYTFGGGTKLEIKR"
measured_metric = "binding result"
result = "binds"

[[record]]
binder = "Clone 20 (Fab in supernatant) (Fab, V domains shown, Screened as Fab in supernatant) VH: QVQLVQSGAEVKKPGASVKVSCKASGFNMKDTYIHWVRQAPGQGLEWMGKIDPANGDTEYAQKFQGRVTMTRDTSTSTVYMELSSLRSEDTAVYYCTTGNLHYALMDYWGQGTSVTVSS VL: DIQMTQSPSSVSASVGDRVTITCKASQAINTYLSWYQQKPGKAPKLLIYRANRAVDGVPSRFSGSGSGTDFTLTISSLQPEDFATYYCLQYLDFPYTFGGGTKLEIKR"
measured_metric = "binding result"
result = "binds"

